Where these numbers come from: the supplement of paper PMC11061612

Examples of compounds with documented combination Emax follow.
tested on: NCI-H2009 (Lung Adenocarcinoma); assay: combination Emax (second highest fraction inhibited in the dose matrix, 72 h); higher = more inhibition; extreme values may be limits of the assay

compound	combination Emax
C[C@@H](c1ccc2nccn2c1)n1nnc2ncc(-c3cnn(C)c3)nc21 [Savolitinib] + Cc1c2c(nn1C)CSCc1cc(n(C)n1)CSc1cc(c3ccccc3c1)OCCCc1c(C(=O)O)n(C)c3c-2c(Cl)ccc13 [AZD5991] (first compound max 1 µM, 7x7, partner max 1 µM)	0.217
O=C(c1cc(Cc2n[nH]c(=O)c3ccccc23)ccc1F)N1CCN(C(=O)C2CC2)CC1 [Olaparib] + CN(CC[C@H](CSC1=CC=CC=C1)NC2=C(C=C(C=C2)S(=O)(=O)NC(=O)C3=CC=C(C=C3)N4CCC(CC4)[C@H](C5=CC=CC=C5C6=CC=C(C=C6)Cl)O)S(=O)(=O)C(F)(F)F)CCO [AZD4320] (first compound max 10 µM, 7x7, partner max 1 µM)	0.112
CC1(C)CCC(CN2CCN(c3ccc(C(=O)NS(=O)(=O)c4ccc(NCC5CCOCC5)c([N+](=O)[O-])c4)c(Oc4cnc5[nH]ccc5c4)c3)CC2)=C(c2ccc(Cl)cc2)C1 [Venetoclax] + CN(C)CCCOc1ccc(-c2ccc3ncc4c(c3c2)n(C2CCOCC2)c(=O)n4C)cn1 [AZD0156] (first compound max 1 µM, 7x7, partner max 1 µM)	0.273

====

Examples of compounds with documented combination Emax follow.
tested on: BT-474 (Breast Carcinoma); experiment: combination Emax (second highest fraction inhibited in the dose matrix, 72 h); higher = more inhibition; extreme values may be limits of the assay
test readout: combination Emax

compound	number
CCN(CCO)CCCOc1ccc2c(Nc3cc(CC(=O)Nc4cccc(F)c4)[nH]n3)ncnc2c1 [AZD2811] + C=CCn1c(=O)c2cnc(Nc3ccc(N4CCN(C)CC4)cc3)nc2n1-c1cccc(C(C)(C)O)n1 [AZD1775] (first compound max 1 µM, partner max 1 µM)	0.125
CC(=O)Nc1cccc(-n2c(=O)n(C3CC3)c(=O)c3c(Nc4ccc(I)cc4F)n(C)c(=O)c(C)c32)c1 [Trametinib] + Cc1nc(-c2cn3c(n2)-c2ccc(-c4cnn(C(C)(C)C(N)=O)c4)cc2OCC3)n(C(C)C)n1 [Taselisib] (first compound max 1 µM, 7x7, partner max 10 µM)	0.841

====

system: JURL-MK1 (Chronic Myelogenous Leukemia); assay: combination Emax (second highest fraction inhibited in the dose matrix, 72 h); higher = more inhibition; extreme values may be limits of the assay
Examples of compounds with documented combination Emax follow.

compound	experimental system	combination Emax
CS(=O)(=O)CCNCc1ccc(-c2ccc3ncnc(Nc4ccc(OCc5cccc(F)c5)c(Cl)c4)c3c2)o1 [Lapatinib] + C[C@@H](Oc1cc(-c2cnn(C3CCNCC3)c2)cnc1N)c1c(Cl)ccc(F)c1Cl [Crizotinib] (first compound max 10 µM, 7x7, partner max 10 µM)	JURL-MK1 (Chronic Myelogenous Leukemia)	1
CN(C)CCCOc1ccc(-c2ccc3ncc4c(c3c2)n(C2CCOCC2)c(=O)n4C)cn1 [AZD0156] + O=C(c1cc(Cc2n[nH]c(=O)c3ccccc23)ccc1F)N1CCN(C(=O)C2CC2)CC1 [Olaparib] (first compound max 3 µM, partner max 3 µM)	JURL-MK1 (Chronic Myelogenous Leukemia)	0.431
Cc1c2c(nn1C)CSCc1cc(n(C)n1)CSc1cc(c3ccccc3c1)OCCCc1c(C(=O)O)n(C)c3c-2c(Cl)ccc13 [AZD5991] + CCN(CCO)CCCOc1ccc2c(Nc3cc(CC(=O)Nc4cccc(F)c4)[nH]n3)ncnc2c1 [AZD2811] (first compound max 1 µM, 7x7, partner max 1 µM)	JURL-MK1 (Chronic Myelogenous Leukemia)	0.901
Cn1cnc2c(F)c(Nc3ccc(Br)cc3Cl)c(C(=O)NOCCO)cc21 [Selumetinib] + C[C@@H]1COCCN1C2=NC(=NC(=C2)C3(CC3)[S@](=N)(=O)C)C4=C5C=CNC5=NC=C4 [AZD6738] (first compound max 10 µM, 7x7, partner max 10 µM)	JURL-MK1 (Chronic Myelogenous Leukemia)	1
COc1cc2c(cc1OCCCCCOc1cc3c(cc1OC)C(=O)N1C=C(C)C[C@H]1C=N3)N=C[C@@H]1CC(C)=CN1C2=O [SG3199] + O=C(c1cc(Cc2n[nH]c(=O)c3ccccc23)ccc1F)N1CCN(C(=O)C2CC2)CC1 [Olaparib] (first compound max 0.001 µM, 7x7, partner max 10 µM)	JURL-MK1 (Chronic Myelogenous Leukemia)	0.418
Cc1nc(Nc2ncc(C(=O)Nc3c(C)cccc3Cl)s2)cc(N2CCN(CCO)CC2)n1 [Dasatinib] + CC(=O)Nc1cccc(-n2c(=O)n(C3CC3)c(=O)c3c(Nc4ccc(I)cc4F)n(C)c(=O)c(C)c32)c1 [Trametinib] (first compound max 2 µM, 7x7, partner max 1 µM)	JURL-MK1 (Chronic Myelogenous Leukemia)	1
CC1(C)CCC(CN2CCN(c3ccc(C(=O)NS(=O)(=O)c4ccc(NCC5CCOCC5)c([N+](=O)[O-])c4)c(Oc4cnc5[nH]ccc5c4)c3)CC2)=C(c2ccc(Cl)cc2)C1 [Venetoclax] + C[C@@H](Nc1cc(F)cc(F)c1)c1cc(C(=O)N(C)C)cc2c(=O)cc(N3CCOCC3)oc12 [AZD8186] (first compound max 1 µM, 7x7, partner max 3 µM)	JURL-MK1 (Chronic Myelogenous Leukemia)	0.095

====

tested on: RVH-421 (Melanoma); assay: Bliss excess, mean over the matrix (fraction); higher = more synergy;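 note: after 72 h of two-drug dosing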
test readout: Bliss excess

molecule	number
CN(CCO)CC[C@H](CSc1ccccc1)Nc1ccc(S(=O)(=O)NC(=O)c2ccc(N3CCC([C@@H](O)c4ccccc4-c4ccc(Cl)cc4)CC3)cc2)cc1S(=O)(=O)C(F)(F)F [AZD4320] + CCN(CCO)CCCOc1ccc2c(Nc3cc(CC(=O)Nc4cccc(F)c4)[nH]n3)ncnc2c1 [AZD2811] (first compound max 1 µM, 7x7, partner max 1 µM)	-0.0297

====

tested on: CAL-85-1 (Breast Carcinoma); assay: combination Emax (second highest fraction inhibited in the dose matrix, 72 h); higher = more inhibition; extreme values may be limits of the assay
Threshold rule: combination Emax greater than or equal to 0.6 is Satisfied; below that, Not satisfied.

compound	label value
COc1cccc(OCCCN)c1-c1cc(Nc2cnc(C#N)cn2)n[nH]1 [Prexasertib] + C[C@@H]1COCCN1C2=NC(=NC(=C2)C3(CC3)[S@](=N)(=O)C)C4=C5C=CNC5=NC=C4 [AZD6738] (first compound max 1 µM, 7x7, partner max 10 µM)	Not satisfied
Cc1c2c(nn1C)CSCc1cc(n(C)n1)CSc1cc(c3ccccc3c1)OCCCc1c(C(=O)O)n(C)c3c-2c(Cl)ccc13 [AZD5991] + CS(=O)(=O)CCNCc1ccc(-c2ccc3ncnc(Nc4ccc(OCc5cccc(F)c5)c(Cl)c4)c3c2)o1 [Lapatinib] (first compound max 1 µM, 7x7, partner max 10 µM)	Satisfied
CN(CCO)CC[C@H](CSc1ccccc1)Nc1ccc(S(=O)(=O)NC(=O)c2ccc(N3CCC([C@@H](O)c4ccccc4-c4ccc(Cl)cc4)CC3)cc2)cc1S(=O)(=O)C(F)(F)F [AZD4320] + CC(=O)O[C@H]1C(=O)[C@@]2(C)[C@H]([C@H](OC(=O)c3ccccc3)[C@]3(O)C[C@H](OC(=O)[C@H](O)[C@@H](NC(=O)c4ccccc4)c4ccccc4)C(C)=C1C3(C)C)[C@]1(OC(C)=O)CO[C@@H]1C[C@@H]2O [Paclitaxel] (first compound max 1 µM, 7x7, partner max 3 µM)	Satisfied
CS(=O)(=O)CCNCc1ccc(-c2ccc3ncnc(Nc4ccc(OCc5cccc(F)c5)c(Cl)c4)c3c2)o1 [Lapatinib] + NC1(c2ccc(-c3nc4ccn5c(=O)[nH]nc5c4cc3-c3ccccc3)cc2)CCC1 [MK-2206] (first compound max 10 µM, 7x7, partner max 10 µM)	Satisfied
CCc1c2c(nc3ccc(O)cc13)-c1cc3c(c(=O)n1C2)COC(=O)[C@]3(O)CC [SN-38] + O=C(c1cc(Cc2n[nH]c(=O)c3ccccc23)ccc1F)N1CCN(C(=O)C2CC2)CC1 [Olaparib] (first compound max 0.3 µM, 7x7, partner max 10 µM)	Satisfied
CN(CCO)CC[C@H](CSc1ccccc1)Nc1ccc(S(=O)(=O)NC(=O)c2ccc(N3CCC([C@@H](O)c4ccccc4-c4ccc(Cl)cc4)CC3)cc2)cc1S(=O)(=O)C(F)(F)F [AZD4320] + C[C@@H]1COCCN1C2=NC(=NC(=C2)C3(CC3)[S@](=N)(=O)C)C4=C5C=CNC5=NC=C4 [AZD6738] (first compound max 1 µM, 7x7, partner max 10 µM)	Satisfied
C=CCn1c(=O)c2cnc(Nc3ccc(N4CCN(C)CC4)cc3)nc2n1-c1cccc(C(C)(C)O)n1 [AZD1775] + CCc1c2c(nc3ccc(O)cc13)-c1cc3c(c(=O)n1C2)COC(=O)[C@]3(O)CC [SN-38] (first compound max 1 µM, partner max 0.3 µM)	Satisfied
C[C@@H](c1ccc2nccn2c1)n1nnc2ncc(-c3cnn(C)c3)nc21 [Savolitinib] + CC1(C)CCC(CN2CCN(c3ccc(C(=O)NS(=O)(=O)c4ccc(NCC5CCOCC5)c([N+](=O)[O-])c4)c(Oc4cnc5[nH]ccc5c4)c3)CC2)=C(c2ccc(Cl)cc2)C1 [Venetoclax] (first compound max 1 µM, 7x7, partner max 1 µM)	Not satisfied
NC1(C(=O)N[C@@H](CCO)c2ccc(Cl)cc2)CCN(c2ncnc3[nH]ccc23)CC1 [Capivasertib] + Cn1cnc2c(F)c(Nc3ccc(Br)cc3Cl)c(C(=O)NOCCO)cc21 [Selumetinib] (first compound max 10 µM, 7x7, partner max 10 µM)	Not satisfied
COc1cc2c(cc1OCCCCCOc1cc3c(cc1OC)C(=O)N1C=C(C)C[C@H]1C=N3)N=C[C@@H]1CC(C)=CN1C2=O [SG3199] + O=C(c1cc(Cc2n[nH]c(=O)c3ccccc23)ccc1F)N1CCN(C(=O)C2CC2)CC1 [Olaparib] (first compound max 0.001 µM, 7x7, partner max 10 µM)	Not satisfied
Cc1c2c(nn1C)CSCc1cc(n(C)n1)CSc1cc(c3ccccc3c1)OCCCc1c(C(=O)O)n(C)c3c-2c(Cl)ccc13 [AZD5991] + C1CN(CCC1(C(=O)N[C@@H](CCO)C2=CC=C(C=C2)Cl)N)C3=NC=NC4=C3C=CN4 [Capivasertib] (first compound max 1 µM, 7x7, partner max 3 µM)	Not satisfied
C=CCn1c(=O)c2cnc(Nc3ccc(N4CCN(C)CC4)cc3)nc2n1-c1cccc(C(C)(C)O)n1 [AZD1775] + C[C@@H]1COCCN1C2=NC(=NC(=C2)C3(CC3)[S@](=N)(=O)C)C4=C5C=CNC5=NC=C4 [AZD6738] (first compound max 1 µM, partner max 10 µM)	Satisfied
